Provenance of the data: PubChem BioAssay

experiment: yeast TOR pathway RPL19A-GFP modulators, primary screen, cell-based, S. cerevisiae, multiplex flow cytometry (AID 1862);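 further: lower values mimic rapamycin by blocking the RPL19A rise seen in DMSO cells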; details: S. cerevisiae RPL19A-GFP strain, flow cytometry fluorescence, 3 h; at 10 µM; active compounds read low
Inconclusive results are not listed.
resultType: percent of DMSO control GFP (%)
# number only, unit % dropped from output

Completed entries (count: 3):
[[record]]
compound = "C[C@@H]1O[C@@H](O[C@H]2C[C@@H](O)[C@]3(CO)[C@H]4[C@H](O)C[C@]5(C)[C@@H](C6=CC(=O)OC6)CC[C@]5(O)[C@@H]4CC[C@]3(O)C2)[C@H](O)[C@H](O)[C@H]1O"
unitsymbol = "%"
numericresult = 108

[[record]]
compound = "CCC1(c2ccccc2)C(=O)N(COC)C(=O)N(COC)C1=O"
unitsymbol = "%"
numericresult = 102

[[record]]
compound = "O=C1CC[C@@]2(O)[C@H]3Cc4ccc(O)c5c4[C@@]2(CCN3CC2CC2)[C@H]1O5"
unitsymbol = "%"
numericresult = 98.3


Problem: percent of DMSO control GFP lookup needed for COc1cc2c3cc1Oc1cc(ccc1O)C[C@@H]1c4c(cc(OC)c(O)c4Oc4ccc(cc4)C[C@H]3N(C)CC2)CCN1C , thanks.
Solution: 88.2

Problem: What would you report for C[C@@H]1O[C@@H](O[C@H]2C[C@@H](O)[C@]3(CO)[C@H]4[C@H](O)C[C@]5(C)[C@@H](C6COC(=O)C6)CC[C@]5(O)[C@@H]4CC[C@]3(O)C2)[C@H](O)[C@H](O)[C@H]1O (some centres not stated) ?
Solution: 97.3

Problem: What would you report for O=C1NCCN2CCCC12 (configuration not stated) ?
Solution: 100

Problem: What would you report for CN(C)[C@@H]1C(=O)C(C(N)=O)=C(O)[C@@]2(O)C(=O)C3=C(O)c4c(O)cccc4[C@@](C)(O)[C@H]3[C@H](O)[C@@H]12 ?
Solution: 102
